run description: Plasma level by the renin inhibition assay from samples taken at 30 minutes from systemic circulation by administering 10 mg/kg intraduodenally to the rat
observed property: concentration at 0.5 h (ng/mL)

These recorded examples may help you get a feel for the data.
| chem smiles | observed property | value measured |
| --- | --- | --- |
| CC(C)C[C@H](O)[C@H](O)[C@H](CC1CCCCC1)NC(=O)[C@H](Cc1c[nH]cn1)NC(=O)[C@@H](CC(=O)N1CCOCC1)Cc1ccccc1 | concentration at 0.5 h | 11 |
| CCCC[C@H](NC(=O)[C@@H](CC(=O)N1CCN(C)CC1)Cc1ccccc1)C(=O)N[C@@H](CC1CCCCC1)[C@@H](O)[C@@H](O)CC(C)C | concentration at 0.5 h | 650 |
| CCN1C[C@@H]([C@H](O)[C@H](CC2CCCCC2)NC(=O)[C@H](Cc2cscn2)NC(=O)[C@H](Cc2ccc(OC)cc2)NC(=O)CC(C)(C)N)OC1=O | concentration at 0.5 h | 24 |
| COc1ccc(C[C@H](NC(=O)CC(C)(C)N)C(=O)N[C@@H](Cc2cccs2)C(=O)N[C@@H](CC2CCCCC2)[C@@H](O)[C@@H](O)CC(C)C)cc1 | concentration at 0.5 h | 6 |

1. CCN1C[C@@H]([C@H](O)[C@H](CC2CCCCC2)NC(=O)[C@H](Cc2cnc[nH]2)NC(=O)[C@@H](CC(=O)N2CCOCC2)Cc2ccccc2)OC1=O
2. CCN1C[C@@H]([C@H](O)[C@H](CC2CCCCC2)NC(=O)[C@H](Cc2c[nH]cn2)NC(=O)[C@H](Cc2ccc(OC)cc2)NC(=O)CC(C)(C)N)OC1=O
[Q] Please compare: 1 and 2 . Report which one has the smaller concentration at 0.5 h value. Selection: enter the item's label.
[A] 1

Entry source: ChEMBL document CHEMBL1126594
